system-tested: OPRK (Homo sapiens)
Sequence (P41145 whole entry): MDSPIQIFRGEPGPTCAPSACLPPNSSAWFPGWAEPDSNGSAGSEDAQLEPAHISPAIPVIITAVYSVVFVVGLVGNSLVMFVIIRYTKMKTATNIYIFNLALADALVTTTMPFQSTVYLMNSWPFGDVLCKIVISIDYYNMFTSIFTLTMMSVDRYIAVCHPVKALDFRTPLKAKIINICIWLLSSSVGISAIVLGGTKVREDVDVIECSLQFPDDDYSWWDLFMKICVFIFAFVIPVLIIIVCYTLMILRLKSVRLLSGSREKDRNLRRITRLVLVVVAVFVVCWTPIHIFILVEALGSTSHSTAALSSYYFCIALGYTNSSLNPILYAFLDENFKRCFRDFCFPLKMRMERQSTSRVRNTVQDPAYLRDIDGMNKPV
test: biochemical
Parameters: expressed in transfected cells; host or cells: CHO-K1
pEC50: −log10 of the molar value.
endpoint-name: pEC50

Measured pEC50, COCCC1CC2CN3CCc4c([nH]c5ccccc45)C(C(=O)OC)(C2)C13 (stereo not shown) [18-MC, 18-methoxycoronaridine, reference compound] : ~4.80

* * *

system-tested: human OPRM (Homo sapiens, UniProt P35372)
Sequence (P35372 whole entry): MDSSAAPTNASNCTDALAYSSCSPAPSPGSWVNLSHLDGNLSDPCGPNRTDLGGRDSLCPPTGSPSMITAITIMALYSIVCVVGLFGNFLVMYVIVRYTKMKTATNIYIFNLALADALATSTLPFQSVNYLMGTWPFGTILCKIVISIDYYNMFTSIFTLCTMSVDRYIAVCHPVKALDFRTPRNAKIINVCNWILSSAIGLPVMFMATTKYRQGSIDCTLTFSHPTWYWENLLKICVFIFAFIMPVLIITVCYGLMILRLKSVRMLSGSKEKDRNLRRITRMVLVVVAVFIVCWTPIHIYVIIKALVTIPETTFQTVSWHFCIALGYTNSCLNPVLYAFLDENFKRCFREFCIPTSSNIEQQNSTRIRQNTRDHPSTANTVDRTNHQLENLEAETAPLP
test: biochemical
Assay type: binding
Parameters: expressed in transfected cells; host or cells: CHO-K1 (cell line provided by Dr. Toll, Torrey Pines Institute); membranes prepared in house
test-conditions: Ki
endpoint-name: pKi
Conceptually, pKi converts a concentration in mol/L into minus its log10.

Measured pKi, CCC1CC2CC3c4[nH]c5ccc(OC)cc5c4CCN(C2)C13 (stereo not shown) [Ibogaine, ibogaine, reference compound] : 5.16

// provenance: patent US10660900B2
